src = ChEMBL document CHEMBL3763047

assayTarget: ATP-dependent translocase ABCB1 (Homo sapiens)
assaySummary: Inhibition of ABCB1 in human KBV1 cells assessed as inhibition of calcein-AM efflux
Assay type: cell-based
cond: read-out: IC50
endpointLabel: IC50 (µM)

1: COc1cc(OC)c2c(=O)cc(C(=O)N3CCN(CCc4ccc([N+](=O)[O-])cc4)CC3)oc2c1
2: O=C(c1cc(=O)c2c(OCc3ccccc3)cccc2o1)N1CCN(Cc2ccccc2)CC1
3: COc1cc(OC)c2c(=O)cc(N3CCN(CCc4ccc([N+](=O)[O-])cc4)CC3)oc2c1
4: COc1cc(OC)c2c(=O)cc(N3CCN(Cc4ccc(F)c(F)c4)CC3)oc2c1
Challenge: Your job: order these 4 records by IC50, ascending. Please list the labels according to the requested order.
Response given: 2, 3, 4, 1

----------
assayTarget: Broad substrate specificity ATP-binding cassette transporter ABCG2 (Homo sapiens)
Sequence (Q9UNQ0 whole entry): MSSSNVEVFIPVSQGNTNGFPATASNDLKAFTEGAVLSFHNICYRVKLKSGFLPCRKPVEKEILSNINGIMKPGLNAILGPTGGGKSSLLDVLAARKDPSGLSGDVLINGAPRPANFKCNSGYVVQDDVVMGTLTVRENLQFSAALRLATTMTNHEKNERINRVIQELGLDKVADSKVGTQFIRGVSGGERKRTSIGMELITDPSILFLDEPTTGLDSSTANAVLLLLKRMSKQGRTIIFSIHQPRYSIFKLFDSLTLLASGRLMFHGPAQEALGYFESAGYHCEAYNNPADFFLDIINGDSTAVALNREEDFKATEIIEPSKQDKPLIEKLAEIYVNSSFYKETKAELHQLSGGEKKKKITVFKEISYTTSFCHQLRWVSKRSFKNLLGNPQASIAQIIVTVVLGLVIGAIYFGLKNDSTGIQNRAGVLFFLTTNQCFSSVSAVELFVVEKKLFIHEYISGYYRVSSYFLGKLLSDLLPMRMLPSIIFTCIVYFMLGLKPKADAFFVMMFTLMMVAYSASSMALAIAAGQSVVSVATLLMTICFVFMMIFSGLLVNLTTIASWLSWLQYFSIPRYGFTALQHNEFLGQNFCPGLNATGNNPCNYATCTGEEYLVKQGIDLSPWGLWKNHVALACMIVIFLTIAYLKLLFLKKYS
assaySummary: Inhibition of ABCG2 in human MCF7/Topo cells by Hoechst 33342 assay
Format: cell-based
cond: read-out: IC50
endpointLabel: IC50 (µM)

# example entries with known answers
{"structure": "COc1cc(O)c2c(=O)cc(C(=O)N3CCN(Cc4ccc([N+](=O)[O-])cc4)CC3)oc2c1", "measValue": 12}
{"structure": "O=C(c1cc(=O)c2c(OCc3ccccc3)cccc2o1)N1CCN(Cc2ccccc2)CC1", "measValue": 16.3}
{"structure": "COc1cc(OC)c2c(=O)cc(N3CCN(Cc4ccc([N+](=O)[O-])cc4)CC3)oc2c1", "measValue": 87.8}

I: COc1cc(OC)c2c(=O)cc(N3CCN(Cc4ccc(C#N)cc4)CC3)oc2c1
II: COc1cc(OC)c2c(=O)cc(N3CCN(Cc4ccc(F)c(F)c4)CC3)oc2c1
Challenge: When the recorded IC50 values are compared, which is smaller: that of I or that of II ? Output the label that corresponds to your choice.
Response given: II

----------
assayTarget: Broad substrate specificity ATP-binding cassette transporter ABCG2 (Homo sapiens)
assaySummary: Inhibition of ABCG2 in human MCF7/Topo cells by Hoechst 33342 assay
Assay type: cell-based
cond: read-out: IC50
pIC50: −log10 of the molar value.
endpointLabel: pIC50

{"structure": "COc1cc(OC)c2c(=O)cc(N3CCN(Cc4ccccc4[N+](=O)[O-])CC3)oc2c1", "measValue": 4.42}
{"structure": "COc1cc(OC)c2c(=O)cc(N3CCN(Cc4cccc([N+](=O)[O-])c4)CC3)oc2c1", "measValue": 4.42}

----------
assayTarget: ATP-dependent translocase ABCB1 (Homo sapiens, UniProt P08183)
Sequence (P08183 whole entry): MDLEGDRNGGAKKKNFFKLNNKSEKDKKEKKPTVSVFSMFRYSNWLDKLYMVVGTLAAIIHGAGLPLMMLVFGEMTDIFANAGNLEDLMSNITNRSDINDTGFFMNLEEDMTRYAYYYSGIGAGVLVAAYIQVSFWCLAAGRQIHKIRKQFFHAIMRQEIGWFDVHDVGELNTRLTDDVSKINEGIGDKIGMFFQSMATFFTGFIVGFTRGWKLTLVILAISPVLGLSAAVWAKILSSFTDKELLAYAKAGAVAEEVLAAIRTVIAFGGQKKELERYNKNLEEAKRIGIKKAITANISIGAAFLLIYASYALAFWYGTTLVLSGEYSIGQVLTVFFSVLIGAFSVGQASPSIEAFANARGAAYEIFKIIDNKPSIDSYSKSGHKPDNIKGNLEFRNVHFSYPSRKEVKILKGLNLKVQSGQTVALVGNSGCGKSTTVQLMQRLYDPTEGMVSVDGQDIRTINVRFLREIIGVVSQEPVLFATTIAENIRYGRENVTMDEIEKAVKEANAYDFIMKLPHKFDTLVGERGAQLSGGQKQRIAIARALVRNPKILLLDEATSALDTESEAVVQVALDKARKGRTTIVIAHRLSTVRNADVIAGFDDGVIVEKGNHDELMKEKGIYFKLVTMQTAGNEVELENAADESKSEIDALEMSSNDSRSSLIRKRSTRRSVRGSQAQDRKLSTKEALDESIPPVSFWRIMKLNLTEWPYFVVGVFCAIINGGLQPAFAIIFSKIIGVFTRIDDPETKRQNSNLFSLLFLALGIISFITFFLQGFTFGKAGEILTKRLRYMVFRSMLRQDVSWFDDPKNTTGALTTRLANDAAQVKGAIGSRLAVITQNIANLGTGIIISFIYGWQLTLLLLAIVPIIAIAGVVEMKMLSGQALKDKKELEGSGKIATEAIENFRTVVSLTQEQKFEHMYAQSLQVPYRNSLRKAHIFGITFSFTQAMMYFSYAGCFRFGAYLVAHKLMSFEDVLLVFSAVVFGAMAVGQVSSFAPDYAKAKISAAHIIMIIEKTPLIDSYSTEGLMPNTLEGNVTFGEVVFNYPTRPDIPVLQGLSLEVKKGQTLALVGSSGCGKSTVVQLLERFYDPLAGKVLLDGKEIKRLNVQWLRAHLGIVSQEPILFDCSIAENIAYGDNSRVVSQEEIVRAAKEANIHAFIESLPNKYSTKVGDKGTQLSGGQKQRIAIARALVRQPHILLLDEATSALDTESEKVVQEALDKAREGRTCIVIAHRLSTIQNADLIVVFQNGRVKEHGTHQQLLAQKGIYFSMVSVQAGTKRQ
assaySummary: Inhibition of ABCB1 in human KBV1 cells assessed as inhibition of calcein-AM efflux
Assay type: cell-based
cond: read-out: IC50
pIC50: −log10 of the molar value.
endpointLabel: pIC50

{"structure": "COc1cc(OC)c2c(=O)cc(N3CCN(Cc4ccc(SC(F)(F)F)cc4)CC3)oc2c1", "pIC50": 4.44}

I: COc1cc(OC)c2c(=O)cc(N3CCN(Cc4cccc([N+](=O)[O-])c4)CC3)oc2c1
II: COc1cc2c(cc1OC)CN(CCc1ccc(NC(=O)c3cc(OC)c(OC)cc3NC(=O)c3cnc4ccccc4c3)cc1)CC2
Challenge: # return whichever of I and II has the smaller pIC50 Bench note: the answer is the label of the chosen record.
Response given: I
(I: 4.48, II: 6.66)
